Data credit: patent US10954214B2

Reported values of IC50 for individual entries
Target: full-length MALT1 protein (Strep-MALT1(1-824)-His) (Homo sapiens (Human), UniProt Q9UDY8)
Sequence (Q9UDY8 whole entry): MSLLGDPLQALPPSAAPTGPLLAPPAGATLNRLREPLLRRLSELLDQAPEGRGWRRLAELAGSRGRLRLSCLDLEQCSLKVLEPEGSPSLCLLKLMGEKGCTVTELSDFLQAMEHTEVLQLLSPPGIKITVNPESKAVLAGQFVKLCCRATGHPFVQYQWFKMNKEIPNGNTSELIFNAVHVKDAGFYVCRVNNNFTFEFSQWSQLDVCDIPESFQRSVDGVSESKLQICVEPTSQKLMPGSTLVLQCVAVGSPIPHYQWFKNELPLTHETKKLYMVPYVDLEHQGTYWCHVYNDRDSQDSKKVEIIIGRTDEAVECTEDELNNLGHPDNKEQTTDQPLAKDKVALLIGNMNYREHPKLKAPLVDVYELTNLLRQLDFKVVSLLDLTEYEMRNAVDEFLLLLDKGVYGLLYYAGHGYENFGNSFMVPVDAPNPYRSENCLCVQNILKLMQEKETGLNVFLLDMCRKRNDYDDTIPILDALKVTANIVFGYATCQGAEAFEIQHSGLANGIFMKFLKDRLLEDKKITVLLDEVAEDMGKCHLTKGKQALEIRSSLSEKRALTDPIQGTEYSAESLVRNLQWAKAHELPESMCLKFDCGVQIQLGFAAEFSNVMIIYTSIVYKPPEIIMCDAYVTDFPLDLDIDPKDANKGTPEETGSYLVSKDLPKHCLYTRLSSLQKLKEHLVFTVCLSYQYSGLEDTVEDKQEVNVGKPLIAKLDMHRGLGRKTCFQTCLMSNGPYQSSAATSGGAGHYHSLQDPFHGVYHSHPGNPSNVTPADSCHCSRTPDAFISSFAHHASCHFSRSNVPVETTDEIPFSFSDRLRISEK

Mol smiles: O=C(Nc1cnc(-n2nccn2)c(Cl)c1)c1cnn(-c2cnc(N3CC(O)C3)c3sccc23)c1C(F)(F)F
Unit descriptor: nM
IC50: 13

Mol smiles: O=C(Nc1cnc(-n2nccn2)c(Cl)c1)c1cnn(-c2cccc3[nH]ncc23)c1C(F)(F)F
Unit descriptor: nM
IC50: 151

Mol smiles: COc1nccc2c(-n3ncc(C(=O)Nc4cnc(-n5nccn5)c(Cl)c4)c3C(F)(F)F)cccc12
Unit descriptor: nM
IC50: 417

Mol smiles: Cn1ccc(-c2ncc(NC(=O)c3cnn(-c4cccc5ccncc45)c3C(F)(F)F)cc2Cl)n1
Unit descriptor: nM
IC50: 1440

Mol smiles: NCCCCNC(=O)c1ncc(NC(=O)c2cnn(-c3cncc4ccccc34)c2C(F)(F)F)cc1Cl
Unit descriptor: nM
IC50: 407

Mol smiles: O=C(Nc1cnc(-c2nnco2)c(Cl)c1)c1cnn(-c2cccc3ncccc23)c1C(F)(F)F
Unit descriptor: nM
IC50: 25

Mol smiles: CN1C(=O)COc2c(Cl)cc(NC(=O)c3cnn(-c4cncc5ccccc45)c3C(F)(F)F)cc21
Unit descriptor: nM
IC50: 209

Mol smiles: Cc1cnc2cccc(-n3ncc(C(=O)Nc4cnc(-n5nccn5)c(Cl)c4)c3C(F)(F)F)n12
Unit descriptor: nM
IC50: 35

----------
Tested on: IL6 secretion by OCI-LY3 ABC-DLBCL cells
Experiment: Human IL6 Mesoscale assay (OCI-LY3)
Assay type: cell-based
Conditions: Homo sapiens, 24 h
pIC50: −log10 of the molar value.
# cutoff 7 applies to pIC50; >= gives fulfilled, < gives not fulfilled

Molecule: Nc1nccc2c(-n3ncc(C(=O)Nc4cnc(-n5nccn5)c(Cl)c4)c3C(F)(F)F)cccc12 [Cpd 330]
Category label: fulfilled
//
Molecule: O=C(Nc1ccnc(C(F)(F)F)c1)c1cnn(-c2cnc(N3CC(O)C3)c3sccc23)c1C(F)(F)F [Cpd 210]
Category label: not fulfilled
//
Molecule: Cc1ncc(NC(=O)c2cnn(-c3cnc(N)c4ccccc34)c2C(F)(F)F)cc1C(F)(F)F [Cpd 377]
Category label: fulfilled

----------
Tested on: IL10 secretion by TMD8 ABC-DLBCL cells
Assay: Human IL10 Mesoscale assay (TMD-8)
Assay type: cell-based
Conditions: Homo sapiens, TMD8; TMD-8 cells, 24 h

Molecule: O=C1COC(c2ncc(-n3ncc(C(=O)Nc4cnc(-n5nccn5)c(Cl)c4)c3C(F)(F)F)c3ccccc23)C1 (stereo not shown)
IC50: 46 nM

Molecule: COc1nccc2c(-n3ncc(C(=O)Nc4cnc(-n5nccn5)c(C#N)c4)c3C(F)(F)F)cccc12
IC50: 3020 nM

Molecule: O=C(Nc1cnc(-n2nccn2)c(Cl)c1)c1cnn(-c2cnc(N3CC(O)C3)c3sccc23)c1C(F)(F)F
IC50: 204 nM

Molecule: Cn1nc(-c2ncc(NC(=O)c3cnn(-c4cccc5c(=O)[nH]ccc45)c3C(F)(F)F)cc2Cl)cc1N
IC50: 2140 nM

Molecule: Cn1ncc2cccc(-n3ncc(C(=O)Nc4cnc(-n5nccn5)c(C#N)c4)c3C(F)(F)F)c21
IC50: > 3020 nM

Molecule: O=C(Nc1cnc(-n2nccn2)c(Cl)c1)c1cnn(-c2cc[n+]([O-])c3ccccc23)c1C(F)(F)F
IC50: 178 nM

Molecule: N#Cc1cncc(NC(=O)c2cnn(-c3cncc4ccccc34)c2C(F)(F)F)c1
IC50: 295 nM

Molecule: N#Cc1cc(NC(=O)c2cnn(-c3ccnc4ccncc34)c2C(F)(F)F)cnc1-n1nccn1
IC50: 1180 nM

Molecule: Cc1nc(-n2nccn2)c(Cl)cc1NC(=O)c1cnn(-c2cnc(Cl)c3sccc23)c1C(F)(F)F
IC50: 60 nM

Molecule: O=C(Nc1cnc(-n2nccn2)c(Cl)c1)c1cnn(-c2nsc3ncccc23)c1C(F)(F)F
IC50: 2750 nM

Molecule: Nc1nccc(-c2ccc(NC(=O)c3cnn(-c4cncc5ccccc45)c3C(F)(F)F)cc2Cl)n1
IC50: 288 nM

Molecule: Cc1cc(NC(=O)c2cnn(-c3cncc4ccccc34)c2C(F)(F)F)cc(C(F)(F)F)n1
IC50: 339 nM

Molecule: N#Cc1cc(NC(=O)c2cnn(-c3cccn4ccnc34)c2C(F)(F)F)cnc1-n1nccn1
IC50: 759 nM

Molecule: O=C(Nc1cnc(-n2nccn2)c(Cl)c1)c1cnn(-c2ncnc3[nH]ncc23)c1C(F)(F)F
IC50: 575 nM

Molecule: O=C(Nc1cnc(-n2ncc(CO)n2)c(Cl)c1)c1cnn(-c2cccc3ncccc23)c1C(F)(F)F
IC50: 31 nM

Molecule: O=C(Nc1cncc(C(F)(F)F)c1)c1cnn(-c2cccc3ccccc23)c1C(F)(F)F
IC50: 214 nM

----------
Tested on: TMD8 cells
Assay: 4-day proliferation assay, TMD8
Format: cell-based
Conditions: Homo sapiens, 96 h, 4 days incubation, CellTiterGLO, read-out: Anti-proliferation: TMD-8 IC50
Reported endpoint: IC50 (µM)

Compound: COC(=O)c1ccc(NC(=O)c2cnn(-c3cccc4ncccc34)c2C(F)(F)F)cc1C#N [Cpd 313]
Unit descriptor: µM
Measurement: 7.94

Compound: O=C(Nc1cnc(-n2nccn2)c(Cl)c1)c1cnn(-c2nccn3nccc23)c1C(F)(F)F [Cpd 141]
Unit descriptor: µM
Measurement: 6.03

Compound: CN(C)Cc1cnn(-c2ncc(NC(=O)c3cnn(-c4cccc5ncccc45)c3C(F)(F)F)cc2Cl)n1 [Cpd 137]
Unit descriptor: µM
Measurement: 2.4

----------
System: TMD8 cells
Test: 4-day proliferation assay, TMD8
Format: cell-based
Conditions: Homo sapiens, 96 h, 4 days incubation, CellTiterGLO, read-out: Anti-proliferation: TMD-8 IC50
pIC50: −log10 of the molar value.

Mol smiles: N#Cc1cc(NC(=O)c2cnn(-c3ccnc4sccc34)c2C(F)(F)F)cnc1-n1nccn1
Limit qualifier: =
pIC50: 6.10

Mol smiles: O=C(Nc1cnc(-n2nccn2)c(Cl)c1)c1cnn(-c2cccc3scnc23)c1C(F)(F)F
Limit qualifier: =
pIC50: 5.82

Mol smiles: Cc1nc(-n2nccn2)c(C#N)cc1NC(=O)c1cnn(-c2cccc3c(=O)[nH]ccc23)c1C(F)(F)F
Limit qualifier: <
pIC50: 4.70

Mol smiles: CN1CCN(C(=O)c2ncc(NC(=O)c3cnn(-c4cncc5ccccc45)c3C(F)(F)F)cc2Cl)CC1
Limit qualifier: =
pIC50: 4.79

Mol smiles: O=C(Nc1cnc(-n2nccn2)c(Cl)c1)c1cnn(-c2ccc(F)c3nccn23)c1C(F)(F)F
Limit qualifier: =
pIC50: 5.63

Mol smiles: N#Cc1cc(NC(=O)c2cnn(-c3nccn4cccc34)c2C(F)(F)F)cnc1-n1nccn1
Limit qualifier: =
pIC50: 5.42

Mol smiles: Cn1c(=O)cc(-n2ncc(C(=O)Nc3cnc(-n4nccn4)c(Cl)c3)c2C(F)(F)F)c2ccccc21
Limit qualifier: =
pIC50: 5.24

----------
# IC50 listing for each entry below
Biological target: full-length MALT1 protein (Strep-MALT1(1-824)-His) (Homo sapiens (Human))

Compound: N#Cc1cc(-n2ncc(C(=O)Nc3cnc(-n4nccn4)c(Cl)c3)c2C(F)(F)F)c2ccccc2n1 [Cpd 412]
Unit descriptor: nM
IC50: 22
--
Compound: Cn1ncc(-c2ncc(NC(=O)c3cnn(-c4cccc5ncccc45)c3C(F)(F)F)cc2C#N)n1 [Cpd 257]
Unit descriptor: nM
IC50: 234
--
Compound: N#Cc1cc(NC(=O)c2cnn(-c3cccc4nc(N)sc34)c2C(F)(F)F)cnc1-n1nccn1 [Cpd 282]
Unit descriptor: nM
IC50: 123
--
Compound: O=C(Nc1cnc(-n2nccn2)c(Cl)c1)c1cnn(-c2cccc3nc(Cl)ccc23)c1C(F)(F)F [Cpd 221]
Unit descriptor: nM
IC50: 2040
--
Compound: O=C(Nc1cnc(-n2nccn2)c(Cl)c1)c1cnn(-c2ccnc3ccccc23)c1C(F)(F)F [Cpd 450]
Unit descriptor: nM
IC50: 10
--
Compound: O=C(Nc1cnc(-c2ncco2)c(Cl)c1)c1cnn(-c2cccc3c(=O)[nH]ccc23)c1C(F)(F)F [Cpd 127]
Unit descriptor: nM
IC50: 15
--
Compound: Cn1c(=O)cc(-n2ncc(C(=O)Nc3cnc(-n4nccn4)c(Cl)c3)c2C(F)(F)F)c2ccccc21 [Cpd 419]
Unit descriptor: nM
IC50: 15
--
Compound: Cn1ccc2c(-n3ncc(C(=O)Nc4cnc(-n5nccn5)c(Cl)c4)c3C(F)(F)F)cccc2c1=O [Cpd 226]
Unit descriptor: nM
IC50: 1200

----------
Tested on: IL10 secretion by TMD8 ABC-DLBCL cells
Test: Human IL10 Mesoscale assay (TMD-8)
Assay type: cell-based
Conditions: Homo sapiens, TMD8; TMD-8 cells, 24 h
pIC50: −log10 of the molar value.
pIC50 of 7 or higher: True. Under 7: False.

Mol smiles: O=C(Nc1ccnc(C(F)(F)F)c1)c1cnn(-c2cccc3c(=O)[nH]ccc23)c1C(F)(F)F
Category label: False

Mol smiles: O=C(Nc1cnc(OC2CC2)c(Cl)c1)c1cnn(-c2cccc3ncccc23)c1C(F)(F)F
Category label: False

Mol smiles: O=C(Nc1cnc(-n2nccn2)c(Cl)c1)c1cnn(-c2ccc(F)c3nccn23)c1C(F)(F)F
Category label: False

Mol smiles: Cn1ncc2c(-n3ncc(C(=O)Nc4cnc(-n5nccn5)c(C#N)c4)c3C(F)(F)F)cccc21
Category label: False

Mol smiles: Cc1cc(-n2nccn2)c(Cl)cc1NC(=O)c1cnn(-c2cccc3c(=O)[nH]ccc23)c1C(F)(F)F
Category label: True

Mol smiles: N#Cc1cc(NC(=O)c2cnn(-c3cccc4ncccc34)c2C(F)(F)F)cnc1-n1nccn1
Category label: True

Mol smiles: N#Cc1ncc(NC(=O)c2cnn(-c3cncc4ccccc34)c2C(F)(F)F)cc1F
Category label: False

Mol smiles: O=C(Nc1cnc(-n2nccn2)c(Cl)c1)c1cnn(-c2cccc3scnc23)c1C(F)(F)F
Category label: False

Mol smiles: O=C(Nc1cnc(-n2nccn2)c(Cl)c1)c1cnn(-c2cnc(C(F)F)c3sccc23)c1C(F)(F)F
Category label: True

Mol smiles: Nc1cnn(-c2ncc(NC(=O)c3cnn(-c4cccc5c(=O)[nH]ccc45)c3C(F)(F)F)cc2Cl)n1
Category label: True
